protocol description: Mouse oral pharmacokinetics (blood and plasma, LC-MS/MS)
Assay type: in vivo, C57BL/6 mice
experimental setup: mouse, whole blood and plasma; 10 mg/kg oral gavage, C57BL/6 mice, 3 days post dosing
recorded metric: blood plasma ratio at 3 days
# respond with the number and nothing more

**Q:** # blood plasma ratio at 3 days lookup, item O=Cc1ccccc1C(=O)N1CCCC[C@H]1COc1cccc(O)c1C=O
**A:** 396

* * *

protocol description: Mouse oral pharmacokinetics (blood and plasma, LC-MS/MS)
Format: in vivo, C57BL/6 mice
experimental setup: mouse, in vivo; 10 mg/kg oral gavage, C57BL/6 mice; read-out: effective half-life (Mouse PO half-life) (converted)
recorded metric: half-life (h)
Field format: number, assumed h, no unit text.

**Q:** Fill blank: measured half-life of the compound O=Cc1ccccc1C(=O)N1CCCC[C@H]1COc1cccc(O)c1C=O is ____.
**A:** 121
